Reference source for all entries: PubChem BioAssay (NCI)

assay_procedure: NCI Yeast Anticancer Drug Screen. Data for the bub3 strain (AID 167)
test_settings: S. cerevisiae bub3 mutant strain, at 5.0 µM (retest, dose inferred, filed as 0.5)
Compounds without any hit were thinned out: in the full panel of roughly 79,000, 15% have a hit. The source made the active and inactive calls. Cut-off read from the data, not from the text of the source: active = growth inhibition above about 70%; inactive = the rest.
Give one outcome, nothing more. List: active, inactive

QUERY: Hi, sorry to bother you, what did the test record for Clc1ccc(CNNCc2ccc(Cl)cc2)cc1 ?
RESULT: inactive

QUERY: Hi, sorry to bother you, what did the test record for O=C(CON1C(=O)c2ccccc2C1=O)c1ccccc1 ?
RESULT: inactive

QUERY: Hi, sorry to bother you, what did the test record for OC(c1nc2ccccc2[nH]1)C(O)C(O)C(O)c1nc2ccccc2[nH]1 (stereo not given) ?
RESULT: inactive

QUERY: Hi, sorry to bother you, what did the test record for O=S(=O)(c1ccc(F)cc1)c1ccc(F)cc1 ?
RESULT: inactive

QUERY: Hi, sorry to bother you, what did the test record for Cc1cc(/C=C/C2CCC3CC(C)CCC3N2CCO)c(C)n1-c1ccccc1 (stereo not given) ?
RESULT: inactive

QUERY: Hi, sorry to bother you, what did the test record for CN1CCN(CN2C(=O)C3C4C=CC(C3C2=O)C2C3C(=O)N(CN5CCN(C)CC5)C(=O)C3C42)CC1 (stereo not given) ?
RESULT: inactive

QUERY: Hi, sorry to bother you, what did the test record for CC(=O)Oc1cccc2cccnc12 ?
RESULT: active

QUERY: Hi, sorry to bother you, what did the test record for C=CCNC(=O)c1ccccc1SC(C)=O ?
RESULT: inactive

QUERY: Hi, sorry to bother you, what did the test record for Nc1nccnc1C(=O)O ?
RESULT: inactive

QUERY: Hi, sorry to bother you, what did the test record for O=C(c1ccco1)N(C(=S)N1CCN(c2ccccn2)CC1)C1CCCCC1 ?
RESULT: inactive

QUERY: Hi, sorry to bother you, what did the test record for CC(C)(C)OC(=O)NOc1ccc([N+](=O)[O-])cc1[N+](=O)[O-] ?
RESULT: inactive

QUERY: Hi, sorry to bother you, what did the test record for COC(=O)[C@]1(C)CCC[C@]2(C)c3ccc(C(C)C)cc3CC[C@@H]12 ?
RESULT: inactive

QUERY: Hi, sorry to bother you, what did the test record for Nc1nc(-c2ccccn2)cc2ccccc12 ?
RESULT: inactive

QUERY: Hi, sorry to bother you, what did the test record for O=C1OC(c2cccnc2)OC(c2ccccc2)=C1C(=O)c1ccccc1 (stereo not given) ?
RESULT: inactive

QUERY: Hi, sorry to bother you, what did the test record for CN(C)c1ccc(/C=C/c2ccnc3ccccc23)c(Cl)c1 ?
RESULT: inactive

====

assay_procedure: NCI Yeast Anticancer Drug Screen. Data for the sgs1 mgt1 strain (AID 161);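 note: 0% = growth of cultures given vehicle only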
test_settings: S. cerevisiae sgs1 mgt1 strain, at 5.0 µM (retest, dose inferred, filed as 0.5), active compounds read high
Compounds without any hit were thinned out: in the full panel of roughly 79,000, 15% have a hit.
measure_name: growth inhibition (%)
Give your result in % as a bare value.

For record CCN(CC)CCOc1ccc2c(C)c(-c3ccccc3)c(=O)oc2c1 the listed growth inhibition is 10

For record C[C@@H](O)[C@H]1CC[C@H]2[C@@H]3CCC4=C/C(=N/O)CC[C@]4(C)[C@H]3CC[C@]12C the listed growth inhibition is 44

For record Nc1ncnc2c(C3OC(CO)C(O)C3O)scc12 (stereo not drawn) the listed growth inhibition is 7
